- Test system: MS2 coat protein
- method.summary: apparent Kd, MS2 coat protein; higher = weaker binding; RNA-MaP array; FMN 200 µM where present
- recorded.conditions: ligand present: flavin mononucleotide; designed as: OFF switch for flavin mononucleotide
measurement.name: apparent Kd

AAGGAACGAGGAUAUGCAGGUUGAGCUCGAGUUCGACCGGAACAUGAGGAUCACCCAUGUAGAAGGUGUAUCCC :: 24.4 nM
GAUUACAUGAGGAUCACCCAUGUACAGGUGAUUCUCGGUACGAGAAGGGCGGAGGGUCACCACACGCAGGAUAUCGAGCAAAGG :: 65.4 nM
GCUGACGAUGUAGGAUAUCAGUAUAAUAAAUACUGAGAAGGACAUGAGGAUCACCCAUGUAAUAAACGUCAGCAGAGGAAACUC :: 22.6 nM
ACAUGAGGAUCACCCAUGUUACGAACAUGAGGAUCACCCAUGUAGGAUAUGCUACUCAAAGAGUAGCAGAAGGACAUGUGCCUU :: 559 nM
UGGCCCGCCGGAGGAUAUCUACUCUGUGGUGCACUGCGUUUGCAAUACAUGAGGAUCACCCAUGUAGAGAAGGCCGAGGGCACA :: 66.9 nM
CAUUAAUAGUAGAAGGGUCAAGUUUUGGGUAGGGCAGGAUAUACGAACAAGAAACAUGAGGAUCACCCAUGUGUCCAUGUCAUG :: 29.6 nM
AGUAGACAAGGAUAUACAUGAGGAUCACCCAUGUGUGAAGGCCAGGAGGCUCCUCCCUGUAGAAGGUGUCGAGU :: 293 nM
CUUUUGUGAGGAUAUUAGUAGUAAAUAAAUAAAAUUACUACUGAGAAGGCACAUGAGGAUCACCCAUGUUCCUC :: 317 nM
GGGCCGUAGUAGAAGGGAUAUACGUUAGGUAUAUCAGGAUAUACAUGAGGAUCACCCAUGUUCUAACAGUGAUAGUCCUCCCUU :: 33.1 nM
CUAUGUUAGCAGGAUAUGCCAUUAUUCUUUUUCGCAGAAGGGCUUACAUGAGGAUCACCCAUGUUACAUUUCUU :: 36.5 nM
UUUUCGGCAGGAUAUACAUGAGGAUCACCCAUGUAAAUUUUUCGUUUAACUUGAAUGUGUAGAAGGGCCAUUUU :: 23.6 nM
UUAAUGUGAGGAUAUCAGGUGUGCUAGAGAACUGGUACAUCUGAGAAGGCACAUGAGGAUCACCCAUGUUCUUC :: 197 nM
AAGUGCUAAGGAUAUAUAUGGAUAUACAUUUAUGUAGAACUACAUGAGGAUCACCCAUGUAGAAGGUAGCAAUA :: 42.3 nM
CAGUACUGAGGAUAUACAUGAGGAUCACCCAUGUGCCUCAGGUAGGAUACUACCAUUAGUAGAAGGCAGUACUG :: 37.7 nM
GAGAAGUCAGGAUAUCCAUGGCGGCACUUGCGUGGUGGCGUGGAGAAGGGACAUGAGGAUCACCCAUGUAAAGU :: 39.1 nM

====

- System: MS2 coat protein
- method.summary: apparent Kd, MS2 coat protein; higher = weaker binding; RNA-MaP array; FMN 200 µM where present
- recorded.conditions: ligand present: flavin mononucleotide; designed as: OFF switch for flavin mononucleotide
Each record gets a class by apparent Kd: lower bin (below 20 nM), middle bin (20 nM to below 50 nM), upper bin (50 nM or more)

GUAGAGUCAGGAUAUACGAGAUCGAUAGAUCAAAGAUCCUUACAUGAGGAUCACCCAUGUAGAAGGGACUCUAC :: upper bin
GAAUAGGCAGGAUAUACAUGAGGAUCACCCAUGUGCCUGCGAAAGGUACGUUCGAAAGGUAGAAGGGCCUAAAC :: lower bin
UAUUAAAACGAGAAGGGAGUACAUGAGGAUCACCCAUGUGCCUCAUAAUACUCAGGAUAUCGUGAUUGGGUCACCAGCUGGGUG :: middle bin
AGCUAGUCAGGAUAUACGAAAAUGUCAGAGGCUGUGAAGGGACAUGAGGAUCACCCAUGUAGAAGGGACUAGCA :: upper bin
AGUGAUUGCUGUGUCAGUUCACAUGAGGAUCACCCAUGUAGCUAGGAUAUCCGCAGUUACUGCUAGGAGAAGGAGCAAGGUGGC :: lower bin
UUAUUUAGGUAGGAUAUCGAUAUUAAUUAUUAUCGAGAAGGGUCUACAUGAGGAUCACCCAUGUUAGCAUGUAU :: middle bin
CGUCAGUGAGGAUAUGGUGUCGUUUACAUGAGGAUCACCCAUGUUUCAUGGGACUAGAGACUAGAAGGUACUGACG :: upper bin
CCUCUACAUGAGGAUCACCCAUGUGAGGAUAUCUCGGAGCAGCCACUUAAAGCACUCCAGAGAAGGCACGUGUA :: middle bin
UCAUACGAUGAGGAUAUCUCCGUUAAAGUAUGUAGAGAAGGCGUUACAUGAGGAUCACCCAUGUUUGUGGGCAG :: upper bin
CCACAUGAGGAUCACCCAUGUGACUUCUGUGGCCCGGUGUUGCAGGAUAUCGCAAGGUUAGUUGACGAGAAGGGCGACGGUGGU :: upper bin
GACUUGUCAGGAUAUCUUACAUUUGCAUCGUAGUUACCAUUGGAGAAGGGACAUGAGGAUCACCCAUGUUUGGC :: middle bin
AAUAUGUUAGGAUAUGCUGCUCGUCACAAAAGUGAUGAGUAGCAGAAGGGACAUGAGGAUCACCCAUGUAAAGA :: middle bin
AAUAUGUUGCAGAAGGCCAUGUUGUGGUAGUACCUCAUGACAUGAGGAUCACCCAUGUCUGUGUUGGAGGAUAUGCAAUAUAUU :: lower bin
GGAUGUCAAAGACAUCCAAAUCGAACAUGAGGAUCACCCAUGUAGGAUAUGCUACUCAAAGAGUAGCAGAAGGACAUGUGCUUU :: upper bin
AAGGUGUAAGGAUAUGCUGCUCGUCACUUGCGUGAUGAGUAGCAGAAGGUACAUGAGGAUCACCCAUGUAAAGA :: middle bin
UUUAUACAUGAGGAUCACCCAUGUGAGGAUAUGCUUUAUUAUUAUUAUUAUUAUUAUUGCAGAAGGCACGUUAU :: upper bin
AGCAUGGUAGGAUAUACGGAACAUUAGGGUUUGUUGUGUGGACAUGAGGAUCACCCAUGUAGAAGGGCCGUGCA :: upper bin
AGUCAUACAGGAUAUACAUGAGGAUCACCCAUGUAAAUCCUAAAUGGGUGAUCCUCAUGUAGAAGGGUAUGACA :: lower bin
UUGAGGUAGGAGAAGGACAGAGGCGGAAACACAAACAUGAGGAUCACCCAUGUAGGAUAUCCUAACUAACGAGAAUACCUCAAG :: lower bin
GUCAGCUCGUGAGGAUAUACAACACUGCUUCGACAGUGUAUUAAGAUCACAUGAGGAUCACCCAUGUAGAAGGCACGAGCUGAU :: upper bin
CGUCCUUAGUGAGGAUAUCAGAAAAUACGGAAAUGAGAAGGCACAUGAGGAUCACCCAUGUAAAUAACGGCCGGCCUUGGCAGC :: lower bin
AAGAAGGACGCAGGAUAUCCAGGACCUCCCGCAGGAGAAGGGCGAGACAUGAGGAUCACCCAUACAUGAGGAUCACCCAUGUAA :: middle bin
UAUACUUACGAAGGAUAUGGUUACAUGAGGAUCACCCAUGUAUGUAUAUUGAUCUAGUAUUUUAACCAGAAGGUCGUGAGUAUA :: upper bin
GGAUUUUACUAGUUUUCUAUACAUGAGGAUCACCCAUGUUUUUAGGAUAUCAGCGUGAAACACGCUGAGAAGGAAGAACAAUCC :: lower bin
AGCGGCGCGGACCACCGCAAAACCAGAAGGACAUGAGGAUCACCCAUGUAACAAAACAGGGCGGUGUAGGAUAUGGCAGACCCA :: lower bin
UAAUUGUGAGGAUAUUCGUAGUUCUCGGAGACGAGAAUUACGGAGAAGGCACAUGAGGAUCACCCAUGUUCCUU :: upper bin
UCACGGGAUUGAGGAUAUAUAUUAAUUUUUUUUAUAGAAGGCAAAUUGUUAGAUUAUUCACUAUACAUGAGGAUCACCCAUGUU :: middle bin
UAGUAUAAGGGCAUUAAACAUGAGGAUCACCCAUGUACGAUAGAGGAUAUGCAUUUCAGUUUAGAGUAGAAGGUUAGAGAAUUU :: middle bin
GUCAAGUGAGGAUAUGAUUGUACAACAGACUAGCGUCUGCAUCAGAAGGCACAUGAGGAUCACCCAUGUUUGUC :: lower bin
